Values were extracted from patent US4959361A.

# System tested: PAF-binding, dog platelets (Canis lupus familiaris, UniProt A0A8I3NSH0)
# Construct: dog platelets; from tissue; host or cells: washed platelets from citrated dog blood
# Sequence (A0A8I3NSH0 1-343): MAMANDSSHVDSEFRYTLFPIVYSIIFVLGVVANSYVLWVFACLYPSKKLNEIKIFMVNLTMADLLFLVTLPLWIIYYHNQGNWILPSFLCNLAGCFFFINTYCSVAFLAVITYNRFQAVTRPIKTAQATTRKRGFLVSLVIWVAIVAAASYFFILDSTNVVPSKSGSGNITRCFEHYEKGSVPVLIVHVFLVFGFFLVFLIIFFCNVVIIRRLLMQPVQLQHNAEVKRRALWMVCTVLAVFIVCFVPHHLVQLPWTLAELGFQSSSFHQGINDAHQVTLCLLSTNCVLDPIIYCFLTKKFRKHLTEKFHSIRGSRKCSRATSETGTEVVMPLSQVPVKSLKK
# Run description: PAF binding assay (radiolabelled H-PAF, washed dog platelets)
# Test context: Table I, triazolothienodiazepines, 10 minutes at room temperature, read-out: PAF-binding IC-50
Recorded metric: IC50 (nM)
Just the number please, in nM, no unit attached.

| Compound | System tested | Unit label | Assay value |
| --- | --- | --- | --- |
| Cc1nnc2n1-c1sc(C#Cc3ccccc3)cc1C(c1ccccc1Cl)=NC2 | PAF-binding, dog platelets (Canis lupus familiaris, UniProt A0A8I3NSH0) | nM | 100 |

IC50 for Cc1nnc2n1-c1sc(C#C[Si](C)(C)C)cc1C(c1ccccc1Cl)=NC2 ?
20

IC50 for Cc1nnc2n1-c1sc(C#CCN3C(=O)C4(C)CCCc5cccc3c54)cc1C(c1ccccc1Cl)=NC2 (stereo not drawn) ?
12

IC50 for Cc1c(C)c2c(c(C)c1O)CCC(C)(C#Cc1cc3c(s1)-n1c(C)nnc1CN=C3c1ccccc1Cl)O2 (stereo not drawn) ?
45

IC50 for Cc1nnc2n1-c1sc(C#CCN3Cc4cccc5cccc(c45)C3=O)cc1C(c1ccccc1Cl)=NC2 ?
3.5
